experiment: Human liver microsomal stability; format: in vitro ADME; settings: human, liver microsomes, Table 4, read-out: Microsome Stability (Human) (DMPK_BIIB), Mean, in vitro t1/2
quantity.name: half-life at 1 µM

INSERT INTO measurements (compound, value) VALUES
  ('CCC1(c2ccccc2)C2=C(CC(C)(C)CC2=O)Nc2ncc(C(F)(F)F)cc21 (single isomer, unassigned) [Compound 133A]', '1.4 min');

* * *

This section presents compounds with their documented pIC50 values.
target: GSK3b (GST-full length GSK3b) (Homo sapiens); construct: GST-full length GSK3b: [SignalChem G08-9G]; purchased SignalChem G08-9G; experiment: GSK3b TR-FRET kinase inhibition assay; format: biochemical; conditions: 1 mM ATP; Table 3; read-out: GSK3b TR-FRET 1 mM ATP Average IC50
Sequence (P49841 whole entry): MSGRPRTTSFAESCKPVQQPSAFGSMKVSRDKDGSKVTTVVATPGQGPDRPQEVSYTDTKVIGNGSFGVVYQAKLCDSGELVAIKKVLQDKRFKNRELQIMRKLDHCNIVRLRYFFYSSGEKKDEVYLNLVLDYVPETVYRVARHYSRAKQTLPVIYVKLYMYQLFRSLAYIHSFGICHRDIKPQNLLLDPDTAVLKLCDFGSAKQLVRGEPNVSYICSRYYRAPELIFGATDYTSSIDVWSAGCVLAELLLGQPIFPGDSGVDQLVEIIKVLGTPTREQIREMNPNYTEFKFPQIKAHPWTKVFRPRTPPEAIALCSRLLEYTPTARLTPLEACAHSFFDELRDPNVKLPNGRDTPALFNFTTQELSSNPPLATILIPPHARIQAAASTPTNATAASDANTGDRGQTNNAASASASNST
pIC50: −log10 of the molar value.
quantity.name: pIC50

INSERT INTO measurements (compound, value) VALUES
  ('Cc1nn(C)c(C)c1-c1cccc(C2(C)C3=C(CC(C)(C)CC3=O)Nc3ncc(C(F)(F)F)cc32)c1 (single isomer, unassigned) [Compound 170A]', '5.30 to 6.00'),
  ('CC1(C)CC(=O)C2=C(C1)Nc1ncc3c(c1C2(C)c1ccccc1)CCC3 (single isomer, unassigned) [Compound 118B]', '5.30 to 6.00'),
  ('CC(C)n1cncc1-c1cccc(C2(C)C3=C(CC(C)(C)CC3=O)Nc3ncc(C(F)(F)F)cc32)c1 (single isomer, unassigned) [Compound 171B]', '6.00 to 7.00'),
  ('CC1(C)CC(=O)C2=C(C1)Nc1ncc(C(F)(F)F)c(C#N)c1C2(C)c1ccccc1 (single isomer, unassigned) [Compound 137A]', '6.00 to 7.00'),
  ('CC1(C)CC(=O)C2=C(C1)Nc1ncc(Br)c(F)c1C2(C)c1ccccc1 (single isomer, unassigned) [Compound 140B]', '4.70 to 5.30'),
  ('COc1cncc(F)c1-c1cccc(C2(C)C3=C(CC(C)(C)CC3=O)Nc3ncc(C)cc32)c1 (single isomer, unassigned) [Compound 155B]', '4.70 to 5.30'),
  ('CC1(C)CC(=O)C2=C(C1)Nc1nccc(CC3CC3)c1C2(C)c1ccccc1 (single isomer, unassigned) [Compound 123B]', '5.30 to 6.00'),
  ('CC1(C)CC(=O)C2=C(C1)Nc1ncc(F)cc1C2(C)c1ccccc1 (single isomer, unassigned) [Compound 107A]', '4.70 to 5.30'),
  ('CC1(C)CC(=O)C2=C(C1)Nc1ncccc1C2(C)c1cccc(-c2ccncc2C2CCC2)c1 (single isomer, unassigned) [Compound 151A]', '5.30 to 6.00'),
  ('CC1(C)CC(=O)C2=C(C1)Nc1ncc(C(F)(F)F)cc1C2(C)c1ccccc1 (single isomer, unassigned) [Compound 128A]', '5.30 to 6.00');

* * *

target: GSK3a (GST-full length GSK3a) (Homo sapiens, UniProt P49840); construct: GST-full length GSK3a [SignalChem G08-10G]; purchased SignalChem G08-10G; assay: GSK3a TR-FRET kinase inhibition assay; type: biochemical; conditions: 4 μM ATP; read-out: GSK3α TR-FRET 4 μM ATP GMean IC50
Sequence (P49840 whole entry): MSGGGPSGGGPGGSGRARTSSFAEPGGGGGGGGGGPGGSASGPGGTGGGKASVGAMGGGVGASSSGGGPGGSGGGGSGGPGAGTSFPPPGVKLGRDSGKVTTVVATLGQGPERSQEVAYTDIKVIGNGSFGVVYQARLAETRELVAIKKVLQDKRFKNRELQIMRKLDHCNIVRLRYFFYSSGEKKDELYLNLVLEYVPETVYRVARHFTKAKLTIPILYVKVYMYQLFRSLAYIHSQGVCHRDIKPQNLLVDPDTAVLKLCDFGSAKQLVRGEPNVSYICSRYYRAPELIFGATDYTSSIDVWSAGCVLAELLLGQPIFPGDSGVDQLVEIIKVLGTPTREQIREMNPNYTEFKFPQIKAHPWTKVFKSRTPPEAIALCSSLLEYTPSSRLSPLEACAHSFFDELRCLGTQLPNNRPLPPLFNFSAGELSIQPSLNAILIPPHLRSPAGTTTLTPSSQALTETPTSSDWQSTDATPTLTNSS
quantity.name: IC50

INSERT INTO results (compound, quantity_name, value) VALUES
  ('CCC1(c2ccccc2)C2=C(CC(C)(C)CC2=O)Nc2ncccc21 (racemic) [Compound 102]', 'IC50', '100 to 1000 nM'),
  ('CCC1(c2cccc(C(C)C)c2)C2=C(CC(C)(C)CC2=O)Nc2ncccc21 (single isomer, unassigned) [Compound 1011A]', 'IC50', '> 5000 nM'),
  ('CCC1(c2ccccc2)C2=C(Nc3ncccc31)C(F)C(C)(C)CC2=O (single isomer, unassigned) [Compound 1006B]', 'IC50', '> 5000 nM'),
  ('CCC1(c2cccc(-c3ccccn3)c2)C2=C(CC(C)(C)CC2=O)Nc2ncccc21 (single isomer, unassigned) [Compound 1016B]', 'IC50', '1000 to 5000 nM'),
  ('CCC1(c2cccc(-c3ccnc(C)c3)c2)C2=C(CC(C)(C)CC2=O)Nc2ncccc21 (single isomer, unassigned) [Compound 1021B]', 'IC50', '100 to 1000 nM'),
  ('CCC1(c2cccc(-c3ccncc3)c2)C2=C(CC(C)(C)CC2=O)Nc2ncccc21 (single isomer, unassigned) [Compound 1017A]', 'IC50', '≤ 100 nM'),
  ('CCC1(c2cccc(-c3cn(C)nc3C)c2)C2=C(CC(C)(C)CC2=O)Nc2ncccc21 (single isomer, unassigned) [Compound 1023B]', 'IC50', '100 to 1000 nM'),
  ('CCC1(c2cccc(-c3c(C)nn(C)c3C)c2)C2=C(CC(C)(C)CC2=O)Nc2ncccc21 (single isomer, unassigned) [Compound 150A]', 'IC50', '1000 to 5000 nM'),
  ('CCC1(c2cccc(-c3cc(C)ncc3C)c2)C2=C(CC(C)(C)CC2=O)Nc2ncccc21 (single isomer, unassigned) [Compound 1027B]', 'IC50', '≤ 100 nM'),
  ('CCC1(c2cccc(-c3ccncc3C)c2)C2=C(CC(C)(C)CC2=O)Nc2ncccc21 (single isomer, unassigned) [Compound 1020B]', 'IC50', '≤ 100 nM'),
  ('CCC1(c2cccc(-c3ccnc4c3CCCC4)c2)C2=C(CC(C)(C)CC2=O)Nc2ncc(F)cc21 (single isomer, unassigned) [Compound 165B]', 'IC50', '≤ 100 nM'),
  ('CCC1(c2cccc(-c3c(F)cncc3OC)c2)C2=C(CC(C)(C)CC2=O)Nc2ncc(F)cc21 (single isomer, unassigned) [Compound 161B]', 'IC50', '≤ 100 nM'),
  ('CCC1(c2ccccc2)C2=C(CC(C)(C)CC2=O)Nc2ncccc21 (single isomer, unassigned) [102 B]', 'IC50', '> 5000 nM'),
  ('CCC1(c2cccc(-c3cn(C)nc3C)c2)C2=C(CC(C)(C)CC2=O)Nc2ncc(F)cc21 (single isomer, unassigned) [Compound 1032A]', 'IC50', '≤ 100 nM'),
  ('CCC1(c2ccccc2)C2=C(Nc3ncccc31)C(F)C(C)(C)CC2=O (single isomer, unassigned) [Compound 1006A]', 'IC50', '> 5000 nM'),
  ('CCC1(c2ccccc2)C2=C(CC(C)(C)CC2=O)Nc2ncc(F)cc21 (single isomer, unassigned) [114 B]', 'IC50', '100 to 1000 nM');

* * *

This section presents molecules with their documented pIC50 values.
biological target: GSK3a (GST-full length GSK3a) (Homo sapiens, UniProt P49840); construct: GST-full length GSK3a [SignalChem G08-10G]; purchased SignalChem G08-10G; test: GSK3a TR-FRET kinase inhibition assay; format: biochemical; details: 4 μM ATP; read-out: GSK3α TR-FRET 4 μM ATP GMean IC50
pIC50: −log10 of the molar value.
quantity.name: pIC50

INSERT INTO measurements (molecule, tested_on, quantity_name, value) VALUES
  ('CCC1(c2cccc(-c3cnnc(C)c3)c2)C2=C(CC(C)(C)CC2=O)Nc2ncccc21 (single isomer, unassigned) [Compound 1022B]', 'GSK3a (GST-full length GSK3a) (Homo sapiens, UniProt P49840)', 'pIC50', '< 5.30'),
  ('CCC1(c2ccccc2)C2=C(CC3(CCC3)CC2=O)Nc2ncccc21 (single isomer, unassigned) [110 B]', 'GSK3a (GST-full length GSK3a) (Homo sapiens, UniProt P49840)', 'pIC50', '< 5.30'),
  ('CCC1(c2ccccc2)C2=C(CC(C)(C)NC2=O)Nc2ncc(F)cc21 (single isomer, unassigned) [Compound 1007A]', 'GSK3a (GST-full length GSK3a) (Homo sapiens, UniProt P49840)', 'pIC50', '< 5.30'),
  ('CCC1(c2ccccc2)C2=C(CC(C)(C)CC2=O)Nc2ncc(F)cc21 (racemic) [Compound 114]', 'GSK3a (GST-full length GSK3a) (Homo sapiens, UniProt P49840)', 'pIC50', '≥ 7.00'),
  ('CCC1(c2cccc(-c3cncn3C(C)C)c2)C2=C(CC(C)(C)CC2=O)Nc2ncc(F)cc21 (single isomer, unassigned) [Compound 1038B]', 'GSK3a (GST-full length GSK3a) (Homo sapiens, UniProt P49840)', 'pIC50', '≥ 7.00'),
  ('CCC1(c2cccc(-c3ccnn3C)c2)C2=C(CC(C)(C)CC2=O)Nc2ncc(F)cc21 (single isomer, unassigned) [Compound 1025B]', 'GSK3a (GST-full length GSK3a) (Homo sapiens, UniProt P49840)', 'pIC50', '6.00 to 7.00'),
  ('CCC1(c2cccc(-c3ccnc(C)c3C)c2)C2=C(CC(C)(C)CC2=O)Nc2ncc(F)cc21 (single isomer, unassigned) [Compound 1035B]', 'GSK3a (GST-full length GSK3a) (Homo sapiens, UniProt P49840)', 'pIC50', '5.30 to 6.00'),
  ('CCC1(c2ccccc2)C2=C(CC3(CCC3)CC2=O)Nc2ncccc21 (single isomer, unassigned) [110 A]', 'GSK3a (GST-full length GSK3a) (Homo sapiens, UniProt P49840)', 'pIC50', '≥ 7.00'),
  ('CCC1(c2cccc(-c3ccnc(C)c3C)c2)C2=C(CC(C)(C)CC2=O)Nc2ncc(F)cc21 (single isomer, unassigned) [Compound 1035A]', 'GSK3a (GST-full length GSK3a) (Homo sapiens, UniProt P49840)', 'pIC50', '5.30 to 6.00'),
  ('CCC1(c2cccc(-c3ccncc3OC)c2)C2=C(CC(C)(C)CC2=O)Nc2ncccc21 (single isomer, unassigned) [Compound 1028A]', 'GSK3a (GST-full length GSK3a) (Homo sapiens, UniProt P49840)', 'pIC50', '5.30 to 6.00'),
  ('CCC1(c2ccccc2)C2=C(CC(C)(C)CC2=O)Nc2ncc(F)cc21 (single isomer, unassigned) [114 A]', 'GSK3a (GST-full length GSK3a) (Homo sapiens, UniProt P49840)', 'pIC50', '≥ 7.00'),
  ('CCC1(c2ccccc2)C2=C(Nc3ncccc31)C(F)C(C)(C)CC2=O (single isomer, unassigned) [Compound 1006C]', 'GSK3a (GST-full length GSK3a) (Homo sapiens, UniProt P49840)', 'pIC50', '5.30 to 6.00'),
  ('CCC1(c2cccc(-c3cn(C)nc3C)c2)C2=C(CC(C)(C)CC2=O)Nc2ncc(F)cc21 (single isomer, unassigned) [Compound 1032B]', 'GSK3a (GST-full length GSK3a) (Homo sapiens, UniProt P49840)', 'pIC50', '≥ 7.00'),
  ('CCC1(c2cccc(C(C)C)c2)C2=C(CC(C)(C)CC2=O)Nc2ncccc21 (single isomer, unassigned) [Compound 1011B]', 'GSK3a (GST-full length GSK3a) (Homo sapiens, UniProt P49840)', 'pIC50', '≥ 7.00'),
  ('CCC1(c2cccc(-c3ccncc3OC)c2)C2=C(CC(C)(C)CC2=O)Nc2ncccc21 (single isomer, unassigned) [Compound 1028B]', 'GSK3a (GST-full length GSK3a) (Homo sapiens, UniProt P49840)', 'pIC50', '≥ 7.00'),
  ('CCC1(c2cccc(C(F)(F)F)c2)C2=C(CC(C)(C)CC2=O)Nc2ncccc21 (single isomer, unassigned) [Compound 1014A]', 'GSK3a (GST-full length GSK3a) (Homo sapiens, UniProt P49840)', 'pIC50', '5.30 to 6.00'),
  ('CCC1(c2cccc(C3CCC3)c2)C2=C(CC(C)(C)CC2=O)Nc2ncccc21 (racemic)', 'GSK3a (GST-full length GSK3a) (Homo sapiens, UniProt P49840)', 'pIC50', '≥ 7.00');
